# Tested on: human platelets
# assay.details: ADP-stimulated platelet aggregation assay (inhibition of aggregation of gel-filtered human platelets)
# Assay type: cell-based
# run.parameters: fibrinogen 100 μg/ml, Ca2+ 1 mM, 10 uM ADP, 37° C., read-out: IC50 (dose inhibiting aggregation by 50% relative to a control lacking the compound)
pIC50: −log10 of the molar value.
// label = label 1 if pIC50 is not less than 7, otherwise label 0

{"sample.smiles": "CCCCS(=O)(=O)N[C@@H](CNC(=O)c1ccc2cc(CCC3CCNCC3)sc2c1)C(=O)O", "class.assignment": "label 1"}
{"sample.smiles": "O=C(NC[C@H](NS(=O)(=O)c1ccccc1)C(=O)O)c1cc2cc(OCCC3CCNCC3)ccc2[nH]1", "class.assignment": "label 1"}
{"sample.smiles": "CCCCS(=O)(=O)N[C@@H](Cc1ccc2oc(CCCC3CCNCC3)cc2c1)C(=O)O", "class.assignment": "label 0"}
{"sample.smiles": "CCCCS(=O)(=O)N[C@@H](CNC(=O)c1ccc2[nH]c(CCC3CCNCC3)nc2c1)C(=O)O", "class.assignment": "label 1"}
{"sample.smiles": "CCCCS(=O)(=O)N[C@@H](Cc1ccc2oc(C(=O)NCC3CCNCC3)cc2c1)C(=O)O", "class.assignment": "label 0"}
